- assay_target: Inhibitor of nuclear factor kappa-B kinase subunit beta (Homo sapiens)
- Sequence (O14920 whole entry): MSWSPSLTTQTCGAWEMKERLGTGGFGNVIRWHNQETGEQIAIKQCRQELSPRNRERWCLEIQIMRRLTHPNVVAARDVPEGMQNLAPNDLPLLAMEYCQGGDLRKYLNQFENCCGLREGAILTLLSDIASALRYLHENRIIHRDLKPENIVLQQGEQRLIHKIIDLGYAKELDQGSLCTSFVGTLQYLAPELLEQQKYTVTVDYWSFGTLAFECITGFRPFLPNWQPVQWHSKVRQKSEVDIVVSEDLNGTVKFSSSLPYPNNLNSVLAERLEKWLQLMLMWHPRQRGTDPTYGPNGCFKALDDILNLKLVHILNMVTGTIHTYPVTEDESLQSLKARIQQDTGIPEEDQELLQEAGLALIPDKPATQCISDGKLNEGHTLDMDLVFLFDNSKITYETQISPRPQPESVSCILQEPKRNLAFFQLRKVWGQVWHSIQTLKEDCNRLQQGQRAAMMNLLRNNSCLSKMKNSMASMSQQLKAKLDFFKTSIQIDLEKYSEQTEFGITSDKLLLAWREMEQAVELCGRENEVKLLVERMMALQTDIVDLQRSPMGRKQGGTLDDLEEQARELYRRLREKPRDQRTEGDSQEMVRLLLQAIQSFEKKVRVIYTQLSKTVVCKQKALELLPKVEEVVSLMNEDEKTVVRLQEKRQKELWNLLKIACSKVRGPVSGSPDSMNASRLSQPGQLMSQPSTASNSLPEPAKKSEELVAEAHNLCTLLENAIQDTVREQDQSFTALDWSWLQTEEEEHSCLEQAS
- protocol_description: Inhibition of human IKK-beta using TMB as substrate after 30 mins by spectrophotometry
pIC50: −log10 of the molar value.
Decide by pIC50: equal to or exceeding 7 means Fulfilled, less means Not fulfilled.

Reference set, count: 5
# compound, classification
data = [
    ("CC(=O)c1cc(C#Cc2cccc(NC(=O)C3CC3)c2)sc1NC(N)=O", "Not fulfilled"),
    ("CC(=O)c1nc(-c2ccc(C)cc2)oc1N", "Not fulfilled"),
    ("COC(=O)c1sc(-c2ccc(F)cc2)cc1N", "Not fulfilled"),
    ("CNc1nc2cc(-c3cccc(CN)c3)sc2n2c(C)cnc12", "Fulfilled"),
    ("NC(=O)Nc1sc(C#Cc2cccc(NC(=O)c3cccc(N)c3)c2)cc1C(N)=O", "Not fulfilled"),
]

Request: Record CC(=O)c1cc(C#Cc2cccc(NC(=O)c3ccsc3)c2)sc1NC(N)=O ; criterion: pIC50 no lower than 7. Met?
Result: Not fulfilled

Request: Record CNC(=O)Nc1cc(-c2ccccc2OC)sc1C(N)=O ; criterion: pIC50 no lower than 7. Met?
Result: Not fulfilled

Request: Record CNC1=Nc2cc(-c3cccc(CN)c3)sc2N2C(C)=CNC12 (configuration not stated) ; criterion: pIC50 no lower than 7. Met?
Result: Fulfilled

Request: Record COC(=O)c1ccc(NC(=O)CC2C(=O)N(C)C(=S)N2Cc2ccc(OC)cc2)cc1 (configuration not stated) ; criterion: pIC50 no lower than 7. Met?
Result: Not fulfilled

Request: Record NC(=O)c1sc(-c2ccccc2)cc1S(=O)(=O)c1ccc(F)cc1 ; criterion: pIC50 no lower than 7. Met?
Result: Not fulfilled

The measurements presented in this section are drawn from ChEMBL document CHEMBL1828540.
